Data credit: ChEMBL document CHEMBL1154363

biological target: Prostaglandin F2-alpha receptor (Homo sapiens, UniProt P43088); assay: Activity at FP receptor at 0.1 uM by FLIPR assay
Sequence (P43088 whole entry): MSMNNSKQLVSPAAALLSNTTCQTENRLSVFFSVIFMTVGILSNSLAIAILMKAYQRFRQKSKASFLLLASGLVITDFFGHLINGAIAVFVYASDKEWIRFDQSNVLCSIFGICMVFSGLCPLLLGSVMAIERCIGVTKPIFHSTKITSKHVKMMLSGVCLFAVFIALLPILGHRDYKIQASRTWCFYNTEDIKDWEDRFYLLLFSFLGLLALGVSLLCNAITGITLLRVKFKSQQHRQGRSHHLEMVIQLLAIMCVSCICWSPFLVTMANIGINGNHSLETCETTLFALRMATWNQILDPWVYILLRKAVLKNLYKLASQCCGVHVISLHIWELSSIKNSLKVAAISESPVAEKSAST
Assay endpoint: Activity (%)

Examples from the recorded data:
Mol smiles | Experimental system | Assay endpoint | Val
Cc1cn(Cc2ccc(F)c(F)c2)c2c(-c3cc(NS(=O)(=O)c4ccc(F)c(F)c4)no3)cc(F)cc12 | Prostaglandin F2-alpha receptor (Homo sapiens, UniProt P43088) | Activity | 15
Cc1cn(Cc2ccc(F)c(F)c2)c2c(-c3cc(NS(=O)(=O)c4cc(Cl)c(Cl)s4)no3)cc(F)cc12 | Prostaglandin F2-alpha receptor (Homo sapiens, UniProt P43088) | Activity | 8
Cc1cn(Cc2ccc3ccccc3c2)c2c(-c3cc(NS(=O)(=O)c4cc(Cl)c(Cl)s4)no3)cc(F)cc12 | Prostaglandin F2-alpha receptor (Homo sapiens, UniProt P43088) | Activity | -7
Cc1cn(Cc2ccc(Cl)cc2Cl)c2c(-c3nnc(NS(=O)(=O)c4ccc(Cl)c(Cl)c4)o3)cc(F)cc12 | Prostaglandin F2-alpha receptor (Homo sapiens, UniProt P43088) | Activity | -15
Cc1cn(Cc2ccc(Cl)cc2Cl)c2c(-c3nc(NS(=O)(=O)c4cc(Cl)c(Cl)s4)no3)cc(F)cc12 | Prostaglandin F2-alpha receptor (Homo sapiens, UniProt P43088) | Activity | -4

[P] Cc1cn(Cc2ccc3ccccc3c2)c2c(-c3cc(NS(=O)(=O)c4ccc(Cl)c(Cl)c4)no3)cc(F)cc12
[Q] Cc1cn(Cc2ccc(F)c(F)c2)c2c(-c3cc(NS(=O)(=O)c4ccc(F)c(F)c4F)no3)cc(F)cc12
// query Hi, I'm comparing P with Q and wondering which one has the bigger number for Activity. Any idea? Answer by quoting the chosen item's label.
// result Q
